# system-tested: Tyk2 (Homo sapiens (Human), UniProt P29597)
# Sequence (P29597 whole entry): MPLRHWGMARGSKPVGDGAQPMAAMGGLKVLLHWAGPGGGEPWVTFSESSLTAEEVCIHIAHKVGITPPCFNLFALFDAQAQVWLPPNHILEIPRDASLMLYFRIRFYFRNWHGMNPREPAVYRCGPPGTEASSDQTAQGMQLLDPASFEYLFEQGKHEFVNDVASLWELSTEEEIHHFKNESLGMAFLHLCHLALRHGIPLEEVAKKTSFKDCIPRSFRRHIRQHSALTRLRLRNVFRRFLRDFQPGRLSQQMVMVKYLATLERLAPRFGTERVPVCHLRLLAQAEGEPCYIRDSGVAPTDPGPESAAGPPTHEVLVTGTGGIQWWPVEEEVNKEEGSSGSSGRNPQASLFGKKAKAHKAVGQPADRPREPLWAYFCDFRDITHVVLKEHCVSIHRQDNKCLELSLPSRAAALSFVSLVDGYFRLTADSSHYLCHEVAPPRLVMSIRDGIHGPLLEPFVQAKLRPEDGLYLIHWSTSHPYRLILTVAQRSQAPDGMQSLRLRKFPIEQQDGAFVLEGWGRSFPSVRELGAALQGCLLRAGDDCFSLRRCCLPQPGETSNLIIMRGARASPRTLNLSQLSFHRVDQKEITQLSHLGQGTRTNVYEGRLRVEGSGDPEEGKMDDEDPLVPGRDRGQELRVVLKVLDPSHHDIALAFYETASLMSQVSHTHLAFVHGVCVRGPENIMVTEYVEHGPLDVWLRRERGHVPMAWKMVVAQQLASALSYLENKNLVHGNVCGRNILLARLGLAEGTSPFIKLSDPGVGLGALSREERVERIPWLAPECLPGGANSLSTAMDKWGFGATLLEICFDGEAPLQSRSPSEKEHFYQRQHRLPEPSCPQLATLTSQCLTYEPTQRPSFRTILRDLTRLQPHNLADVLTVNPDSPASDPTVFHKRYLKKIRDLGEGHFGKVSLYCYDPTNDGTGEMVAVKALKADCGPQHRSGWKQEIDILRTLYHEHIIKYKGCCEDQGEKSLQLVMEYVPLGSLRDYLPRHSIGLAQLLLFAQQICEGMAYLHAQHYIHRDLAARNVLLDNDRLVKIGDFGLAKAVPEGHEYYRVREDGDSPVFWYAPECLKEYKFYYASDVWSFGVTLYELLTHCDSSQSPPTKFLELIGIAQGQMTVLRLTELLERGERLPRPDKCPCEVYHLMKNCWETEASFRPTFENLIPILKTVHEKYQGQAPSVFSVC
# assay-summary: Enzyme assay (LANCE Ultra ULight-JAK1 Peptide), Tyk2
# Format: biochemical
# test-context: ATP 100 μM; Synthetic Examples^a

structure-smiles-string | system-tested | IC50 (µM)
c1ccc2sc(CN3CCC(c4nnn5cnc6[nH]ccc6c45)CC3)nc2c1 | Tyk2 (Homo sapiens (Human), UniProt P29597) | 0.74

====

Measured IC50 of individual entries
# system-tested: JAK1 (Homo sapiens (Human))
# Sequence (P23458 whole entry): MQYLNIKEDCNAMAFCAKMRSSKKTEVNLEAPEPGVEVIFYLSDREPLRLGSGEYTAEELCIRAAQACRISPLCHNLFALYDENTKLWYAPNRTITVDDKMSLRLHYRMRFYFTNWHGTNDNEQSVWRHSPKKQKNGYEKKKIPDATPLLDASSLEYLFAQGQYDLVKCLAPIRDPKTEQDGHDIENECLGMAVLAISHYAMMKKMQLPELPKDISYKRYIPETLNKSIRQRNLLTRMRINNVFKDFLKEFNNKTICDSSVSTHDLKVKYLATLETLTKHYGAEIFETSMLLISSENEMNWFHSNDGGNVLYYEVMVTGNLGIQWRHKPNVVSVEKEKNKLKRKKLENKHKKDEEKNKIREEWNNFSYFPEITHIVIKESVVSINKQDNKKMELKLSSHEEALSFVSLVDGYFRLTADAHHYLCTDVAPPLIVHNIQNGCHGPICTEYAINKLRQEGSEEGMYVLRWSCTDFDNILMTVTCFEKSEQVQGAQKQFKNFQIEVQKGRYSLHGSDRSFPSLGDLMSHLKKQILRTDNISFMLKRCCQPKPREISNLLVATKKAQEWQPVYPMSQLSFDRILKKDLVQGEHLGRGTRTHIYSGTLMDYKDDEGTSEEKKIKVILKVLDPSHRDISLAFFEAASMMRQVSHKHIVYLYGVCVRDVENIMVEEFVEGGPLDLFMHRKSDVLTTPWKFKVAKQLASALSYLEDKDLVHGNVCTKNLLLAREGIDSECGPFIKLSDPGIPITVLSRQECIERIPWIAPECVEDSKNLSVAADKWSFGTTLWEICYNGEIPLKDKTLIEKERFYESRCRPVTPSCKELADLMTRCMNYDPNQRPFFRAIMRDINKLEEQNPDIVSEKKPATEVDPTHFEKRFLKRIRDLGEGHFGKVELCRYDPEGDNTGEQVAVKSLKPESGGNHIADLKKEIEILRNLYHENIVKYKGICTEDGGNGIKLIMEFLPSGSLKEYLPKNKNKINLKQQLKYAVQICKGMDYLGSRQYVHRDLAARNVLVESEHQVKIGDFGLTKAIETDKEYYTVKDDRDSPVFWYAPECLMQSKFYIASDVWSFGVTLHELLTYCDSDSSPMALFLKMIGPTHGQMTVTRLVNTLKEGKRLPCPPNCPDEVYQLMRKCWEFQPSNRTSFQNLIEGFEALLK
# assay-summary: Enzyme assay (LANCE Ultra ULight-JAK1 Peptide), JAK1
# Assay type: biochemical
# test-context: ATP 100 μM; Synthetic Examples^a

molecule | IC50
CC(c1ccccc1)N1CCC(c2nnn3cnc4[nH]ccc4c23)CC1 (racemic) [Ex 245] | 0.017 µM
Brc1nc(CN2CCC(c3nnn4cnc5[nH]ccc5c34)CC2)sc1Br [Ex 233] | 0.021 µM
c1ccc2sc(CN3CCC(c4nnn5cnc6[nH]ccc6c45)CC3)nc2c1 [Ex 232] | 0.0053 µM

Each recorded value in this set is attributed to patent US9556187B2.
